Biological target: T1, human IL-12 (human, UniProt P29460 23-328; P29459 23-219)
T1 construct: Recombinant (Peprotech); FLAG-tagged IL-12 in the flow cytometry assays, biotinylated in the IL-12Rβ2 assay; also called hIL-12
T1 sequence 1: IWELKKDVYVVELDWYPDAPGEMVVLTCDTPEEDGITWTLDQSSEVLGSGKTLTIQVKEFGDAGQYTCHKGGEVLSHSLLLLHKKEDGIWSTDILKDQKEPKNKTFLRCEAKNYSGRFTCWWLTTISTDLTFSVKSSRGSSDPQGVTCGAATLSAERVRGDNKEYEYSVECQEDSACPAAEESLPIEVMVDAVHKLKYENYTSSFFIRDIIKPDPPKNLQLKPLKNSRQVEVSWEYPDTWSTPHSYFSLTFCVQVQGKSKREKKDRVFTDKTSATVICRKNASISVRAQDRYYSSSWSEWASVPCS
T1 sequence 2: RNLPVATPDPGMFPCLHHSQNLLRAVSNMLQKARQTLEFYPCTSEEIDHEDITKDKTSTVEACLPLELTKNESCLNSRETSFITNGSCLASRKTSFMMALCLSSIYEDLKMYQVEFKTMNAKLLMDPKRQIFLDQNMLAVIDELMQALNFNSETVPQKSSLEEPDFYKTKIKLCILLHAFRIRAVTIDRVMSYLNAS
Assay: ELISA, coated IL-12
experimental endpoint: binding result

Antibody 60 (antibody, human IgG1, kappa, V domains shown) VH: EVQLVQSGAEVKKPGATVKISCKASGYTFSDYYLHWVRQRPEKGLEWMGWIDPENGDTEYAPKFQGKVTITADTSTDTGYLELSSLRSEDTAVYYCAANKELRYFDVWGQGTLVTVSS VL: DIQMTQSPSSVSASVGDRVTITCRASQSISINLHWYQQKPGKAPKLLIKFASQSISGVPSRFSGSGSGTDFSLTINSLQPEDFATYYCQQSNSFPLTFGGGTKVEIKR = binds
Antibody 67 (antibody, human IgG1, kappa, V domains shown) VH: EVQLVQSGAEVKKPGATVKISCKASGYTFSDYYLHWVRQRPGKGLEWMGWIDPENGDTEYAPKFQGRVTITADTSTDTGYLELSSLRSEDTAVYYCAANKELRYFDVWGQGTLVTVSS VL: DIQMTQSPSSVSASVGDRVTITCRASQSISINLHWYQQKPGKAPKLLIYFASQSISGVPSRFSGSGSGTDFSLTINSLQPEDFARYYCQQSNSFPLTFGGGTKVEIKR = binds
Antibody 73 (antibody, human IgG1, kappa, V domains shown) VH: EVQLVQSGAEVKKPGATVKISCKASGYTFSDYYLHWVRQAPEKGLEWMGWIDPENGDTEYAPKFQGRVTITADTSTDTGYLELSSLRSEDTAVYYCAANKELRYFDVWGQGTLVTVSS VL: DIQMTQSPSSVSASVGDRVTITCRASQSISINLHWYQQKPGKAPKLLIKFASQSISGVPSRFSGYGSGTDFSLTINSLQPEDFARYYCQQSNSFPLTFGGGTKVEIKR = binds
